Study system: T1, human thrombin receptor (human, UniProt P25116 42-425)
T1 chain: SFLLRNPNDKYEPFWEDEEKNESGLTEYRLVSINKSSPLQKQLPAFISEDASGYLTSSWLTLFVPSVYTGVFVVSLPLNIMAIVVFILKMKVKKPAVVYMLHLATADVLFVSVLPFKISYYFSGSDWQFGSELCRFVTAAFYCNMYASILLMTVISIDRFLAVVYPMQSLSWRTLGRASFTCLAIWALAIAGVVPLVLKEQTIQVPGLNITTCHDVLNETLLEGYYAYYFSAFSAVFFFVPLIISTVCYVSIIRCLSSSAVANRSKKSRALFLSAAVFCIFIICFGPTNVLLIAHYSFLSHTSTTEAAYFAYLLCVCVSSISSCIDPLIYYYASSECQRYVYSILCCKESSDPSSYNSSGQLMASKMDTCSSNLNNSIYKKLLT
Assay summary: cell-based or functional assay
Square brackets hold non-standard residues; d marks the D form. Ends that are not written are not given here. Cha = N[C@@H](CC1CCCCC1)C(=O)O; Mpa = O=C(O)CCS
Recorded endpoint: IC50 (50% inhibition of thrombin-induced platelet activation or aggregation) (µM)
Just the number in µM, nothing appended.

// known answers, use as guide
Binder	Result value
[Mpa]F[Cha][Cha]RNPNDK-OH (SMILES N=C(N)NCCC[C@H](NC(=O)[C@H](CC1CCCCC1)NC(=O)[C@H](CC1CCCCC1)NC(=O)[C@H](Cc1ccccc1)NC(=O)CCS)C(=O)N[C@@H](CC(N)=O)C(=O)N1CCC[C@H]1C(=O)N[C@@H](CC(N)=O)C(=O)N[C@@H](CC(=O)O)C(=O)N[C@@H](CCCCN)C(=O)O) [Mpr-F(Cha) (Cha)RNPNDK]	30
[Mpa]F[Cha][Cha]RAPNDK-NH2 (SMILES C[C@H](NC(=O)[C@H](CCCNC(=N)N)NC(=O)[C@H](CC1CCCCC1)NC(=O)[C@H](CC1CCCCC1)NC(=O)[C@H](Cc1ccccc1)NC(=O)CCS)C(=O)N1CCC[C@H]1C(=O)N[C@@H](CC(N)=O)C(=O)N[C@@H](CC(=O)O)C(=O)N[C@@H](CCCCN)C(N)=O) [Mpr-F(Cha) (Cha)RAPNDK-NH2]	40
[Mpa]FLLRNPNC-NH2 (cysteine pairing not given here) [Mpr-FLLRNPNC-NH2]	400

Next item in the queue.
Prompt: Requested read-out: IC50 (50% inhibition of thrombin-induced platelet activation or aggregation). Entry: [Mpa]FLLRNPNDK [Mpr-FLLRNPNDK]
Response: 80

Just for reference, patent US7119182 is where these values come from.
